Would you mind telling me the reported Cmax of each entry?
# System under test: CYP2D6 (Homo sapiens)
# Assay: Example 2 phase 1 drug-drug interaction study, rivoceranib 700 mg QD + 5+1 cocktail: dextromethorphan probe
# Assay context: human, in vivo, Cmax, Geometric LSM, Rivoceranib plus 5 + 1 cocktail, healthy volunteers, 5+1 cocktail day 11 + rivoceranib 700 mg QD days 6-15
Put down the number, then write its unit next to it.

[ask] Given the entry CN1CC[C@@]23CCCC[C@@H]2[C@@H]1Cc1ccc(O)cc13 , report its measured Cmax.
[reply] 4.74 ng/mL

[ask] Quick one: COc1ccc2c(c1)[C@]13CCCC[C@@H]1[C@H](C2)N(C)CC3
[reply] 2.78 ng/mL

---

# System under test: CYP2D6 (Homo sapiens, UniProt P10635)
# Sequence (P10635 whole entry): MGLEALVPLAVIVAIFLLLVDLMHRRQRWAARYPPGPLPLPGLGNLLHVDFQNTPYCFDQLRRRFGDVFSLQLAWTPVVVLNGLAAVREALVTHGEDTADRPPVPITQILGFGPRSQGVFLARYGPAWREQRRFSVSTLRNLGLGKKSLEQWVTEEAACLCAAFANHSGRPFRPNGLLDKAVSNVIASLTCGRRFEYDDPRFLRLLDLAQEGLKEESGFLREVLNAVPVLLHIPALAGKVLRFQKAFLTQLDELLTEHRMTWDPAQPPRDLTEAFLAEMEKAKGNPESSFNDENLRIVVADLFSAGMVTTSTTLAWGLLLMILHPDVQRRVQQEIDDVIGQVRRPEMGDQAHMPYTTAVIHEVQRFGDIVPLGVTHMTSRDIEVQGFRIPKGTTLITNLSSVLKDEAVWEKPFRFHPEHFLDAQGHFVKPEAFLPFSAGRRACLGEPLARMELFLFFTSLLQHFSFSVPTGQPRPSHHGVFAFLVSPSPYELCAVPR
# Assay: Example 2 phase 1 drug-drug interaction study, rivoceranib 700 mg QD + 5+1 cocktail: dextromethorphan probe
# Assay context: human, in vivo, po, AUC(0-∞), Geometric LSM, 5 + 1 cocktail alone, healthy volunteers, single oral 5+1 cocktail dose day 1, fasted
Metric name: AUC(0-inf) (ng·h/mL)
Answer with a number only, understood to be in ng·h/mL.

[ask] Sample CN1CC[C@@]23CCCC[C@@H]2[C@@H]1Cc1ccc(O)cc13 — what was its AUC(0-inf)?
[reply] 27.9

[ask] How about COc1ccc2c(c1)[C@]13CCCC[C@@H]1[C@H](C2)N(C)CC3 ?
[reply] 13.3

---

# System under test: UniProt P10635
# Assay: Example 2 phase 1 drug-drug interaction study, rivoceranib 700 mg QD + 5+1 cocktail: dextromethorphan probe
# Assay context: human, in vivo, AUC(0-∞), Geometric LSM, Rivoceranib plus 5 + 1 cocktail, healthy volunteers, 5+1 cocktail day 11 + rivoceranib 700 mg QD days 6-15
Metric name: AUC(0-inf)
State the result as a value with its unit after it.

[ask] API: value(readout=AUC(0-inf), system=UniProt P10635) for record COc1ccc2c(c1)[C@]13CCCC[C@@H]1[C@H](C2)N(C)CC3
[reply] 36.2 ng·h/mL

[ask] Now this one: CN1CC[C@@]23CCCC[C@@H]2[C@@H]1Cc1ccc(O)cc13
[reply] 37.1 ng·h/mL

---

# System: CYP3A
# Assay: Example 2 phase 1 drug-drug interaction study, rivoceranib 700 mg QD + 5+1 cocktail: midazolam probe
# Assay context: human, in vivo, Cmax, Mean (CV %), Rivoceranib plus 5 + 1 cocktail, healthy volunteers, 5+1 cocktail day 11 + rivoceranib 700 mg QD days 6-15
Metric name: Cmax (ng/mL)
The answer is to be given in ng/mL; state only the numeric part.

[ask] Fill blank: measured Cmax of the compound Cc1ncc2n1-c1ccc(Cl)cc1C(c1ccccc1F)=NC2 [midazolam] is ____.
[reply] 25.7

---

# System under test: CYP1A2 (Homo sapiens, UniProt P05177)
# Sequence (P05177 whole entry): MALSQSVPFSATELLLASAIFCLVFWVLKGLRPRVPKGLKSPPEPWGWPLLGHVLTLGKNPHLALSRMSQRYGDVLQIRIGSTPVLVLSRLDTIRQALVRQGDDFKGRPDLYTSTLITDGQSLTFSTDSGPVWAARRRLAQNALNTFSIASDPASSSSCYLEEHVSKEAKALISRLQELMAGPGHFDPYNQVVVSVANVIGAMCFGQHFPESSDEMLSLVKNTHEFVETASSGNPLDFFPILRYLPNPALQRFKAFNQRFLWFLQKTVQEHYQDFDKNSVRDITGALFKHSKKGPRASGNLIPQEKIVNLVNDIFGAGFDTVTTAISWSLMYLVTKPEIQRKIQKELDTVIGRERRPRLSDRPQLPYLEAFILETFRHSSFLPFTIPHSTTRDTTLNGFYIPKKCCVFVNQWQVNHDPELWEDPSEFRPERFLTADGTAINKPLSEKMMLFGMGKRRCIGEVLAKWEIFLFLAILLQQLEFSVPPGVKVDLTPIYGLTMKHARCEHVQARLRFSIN
# Assay: clinical
# Assay context: human, in vivo, po, Cmax, Geometric LSM, 5 + 1 cocktail alone
Metric name: Cmax (ng/mL)
Dear colleague, please return just the value in ng/mL, with no unit written.

[ask] Form field: Cmax recorded for Cn1c(=O)[nH]c2ncn(C)c2c1=O [paraxanthine] with CYP1A2 (Homo sapiens, UniProt P05177) (enter value)
[reply] 1440

---

# System under test: CYP2D6 (Homo sapiens)
# Assay: Example 2 phase 1 drug-drug interaction study, rivoceranib 700 mg QD + 5+1 cocktail: dextromethorphan probe
# Assay context: human, in vivo, po, Cmax, Mean (CV %), 5 + 1 cocktail alone, healthy volunteers, single oral 5+1 cocktail dose day 1, fasted
Please respond with reported Cmax for every item in the list.
Output spec: scalar in ng/mL, unitless text.

[ask] What measured Cmax goes with CN1CC[C@@]23CCCC[C@@H]2[C@@H]1Cc1ccc(O)cc13 ?
[reply] 4.66

[ask] Thanks! And COc1ccc2c(c1)[C@]13CCCC[C@@H]1[C@H](C2)N(C)CC3 ?
[reply] 1.4
